studyTarget: human Yes1 enzyme (Homo sapiens, UniProt P07947)
Construct: made in house
Sequence (P07947 whole entry): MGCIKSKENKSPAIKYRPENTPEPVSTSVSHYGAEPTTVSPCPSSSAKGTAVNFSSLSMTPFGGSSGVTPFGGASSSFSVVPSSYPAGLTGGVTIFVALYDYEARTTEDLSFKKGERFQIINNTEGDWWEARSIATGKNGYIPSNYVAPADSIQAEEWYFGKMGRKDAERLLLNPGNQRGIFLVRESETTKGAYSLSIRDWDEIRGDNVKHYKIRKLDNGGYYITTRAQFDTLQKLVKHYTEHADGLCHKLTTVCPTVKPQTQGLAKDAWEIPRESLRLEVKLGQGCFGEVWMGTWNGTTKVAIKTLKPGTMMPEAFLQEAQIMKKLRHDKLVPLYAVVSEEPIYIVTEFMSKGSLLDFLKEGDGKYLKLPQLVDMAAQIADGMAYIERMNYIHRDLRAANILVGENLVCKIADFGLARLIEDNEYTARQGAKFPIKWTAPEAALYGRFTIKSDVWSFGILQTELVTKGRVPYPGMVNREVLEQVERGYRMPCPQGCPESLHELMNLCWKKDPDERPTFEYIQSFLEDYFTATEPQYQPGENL
experimentalProtocol: Yes1 enzyme inhibitory activity (time-resolved fluorometry, biotinylated peptide phosphorylation)
Type: biochemical
particulars: read-out: YES_IC50
measuredParameter: IC50 (nM)

>>> endpointresult("Cc1cc(Oc2c(F)cccc2F)ncc1-n1ncc(C(=O)c2cc3cc(F)c(N4C(=O)NC5(CCCC5)C4=O)cc3[nH]2)c1N")
4.7
>>> endpointresult("Cc1cc(Oc2c(F)cccc2F)ncc1-n1ncc(C(=O)c2cc3cc(OC4CCN(C(C)C)CC4)c(C4CCN(S(C)(=O)=O)CC4)cc3[nH]2)c1N")
0.77
>>> endpointresult("Cc1cc(-n2ncc(C(=O)c3cc4cc(F)c(NS(C)(=O)=O)cc4[nH]3)c2N)cnc1Oc1cc(F)cc(F)c1")
210

----------
studyTarget: human Yes1 enzyme (Homo sapiens, UniProt P07947)
Construct: made in house
experimentalProtocol: Yes1 enzyme inhibitory activity (time-resolved fluorometry, biotinylated peptide phosphorylation)
Type: biochemical
particulars: biotinylated peptide phosphorylation, read-out: YES_IC50
Lab note: cut-off is 2 nM. Strictly less in IC50 is true. Exactly 2 nM or more is false.

>>> classlabel("Cc1cc(Oc2cccc(F)c2F)ccc1-n1ncc(C(=O)c2cc3cc(C4CCN(C(C)C)CC4)c(F)cc3[nH]2)c1N")
"true"
>>> classlabel("Cc1ccccc1Oc1cc(C)c(-n2ncc(C(=O)c3cc4cc(F)c(NS(C)(=O)=O)cc4[nH]3)c2N)cn1")
"true"
>>> classlabel("Cc1cc(Oc2c(F)cccc2F)ncc1-n1ncc(C(=O)c2cc3cc(Cl)c(NS(C)(=O)=O)cc3[nH]2)c1N")
"true"
>>> classlabel("Cc1cc2cc(C(=O)c3cnn(-c4ccc(Oc5ccccc5F)cc4C)c3N)[nH]c2cc1NS(C)(=O)=O")
"true"
>>> classlabel("Cc1cc(Oc2ccccc2F)ccc1-n1ncc(C(=O)c2cc3cc(OCC(F)F)c(NS(C)(=O)=O)cc3[nH]2)c1N")
"true"
>>> classlabel("Cc1cc(Oc2c(F)cccc2F)ncc1-n1ncc(C(=O)c2cc3cc(F)c(NS(=O)(=O)c4cccc(C#N)c4)cc3[nH]2)c1N")
"false"
>>> classlabel("Cc1cc(Oc2ccccc2F)ncc1-n1ncc(C(=O)c2cc3cc(OC(F)F)c(NS(=O)(=O)CCCF)cc3[nH]2)c1N")
"false"
>>> classlabel("Cc1cc(Oc2c(F)cccc2F)ncc1-n1ncc(C(=O)c2cc3cc(OCC(F)F)c(NS(=O)(=O)CCC(F)F)cc3[nH]2)c1N")
"false"
>>> classlabel("Cc1cc(Oc2cccc(F)c2F)cc(F)c1-n1ncc(C(=O)c2cc3cc(Cl)c(NS(C)(=O)=O)cc3[nH]2)c1N")
"false"
>>> classlabel("Cc1cc2cc(C(=O)c3cnn(-c4cnc(Oc5ccc(F)cc5)cc4C)c3N)[nH]c2cc1N1CCCS1(=O)=O")
"false"
>>> classlabel("Cc1cc(Oc2ccccc2F)cc(F)c1-n1ncc(C(=O)c2cc3cc(F)c(NS(=O)(=O)C4CC4)cc3[nH]2)c1N")
"false"

----------
studyTarget: human Lck enzyme (Homo sapiens)
Construct: purchased Carna Biosciences, Inc. 08-170
experimentalProtocol: Lck enzyme inhibitory activity (time-resolved fluorometry, biotinylated peptide phosphorylation)
Assay type: biochemical
particulars: biotinylated peptide phosphorylation, read-out: LCK_IC50
Experimental: 3. Lck Enzyme Inhibitory Activity Lck inhibitory activity was determined based on activity of inhibiting phosphorylation reaction of a biotinylated peptide (EGPWLEEEEEAYGWMDF) using a human Lck enzyme (manufactured by Carna Biosciences, Inc., cat 08-170). The phosphorylated biotinylated peptide was detected by time-resolved fluorometry using an anti-phosphorylated tyrosine antibody conjugated to europium cryptate, and streptavidin conjugated to XL665, an allophycocyanin derivative. […]
Lab note: cut-off is 100 nM. Strictly less in IC50 is Yes. Exactly 100 nM or more is No.

>>> classlabel("Cc1cc(Oc2ccccc2F)ccc1-n1ncc(C(=O)c2cc3cc(F)c(NS(=O)(=O)c4cncc(Cl)c4)cc3[nH]2)c1N")
"No"
>>> classlabel("Cc1cc(Oc2ccccc2F)cc(F)c1-n1ncc(C(=O)c2cc3cc(OCC(F)F)c(NS(=O)(=O)C4CC4)cc3[nH]2)c1N")
"Yes"
>>> classlabel("Cc1cccc(S(=O)(=O)Nc2cc3[nH]c(C(=O)c4cnn(-c5cnc(Oc6ccccc6F)cc5C)c4N)cc3cc2C)n1")
"Yes"
>>> classlabel("COc1cncc(S(=O)(=O)Nc2cc3[nH]c(C(=O)c4cnn(-c5cnc(Oc6ccccc6F)cc5C)c4N)cc3cc2C)c1")
"No"
>>> classlabel("Cc1cc(Oc2ccccc2F)ncc1-n1ncc(C(=O)c2cc3cc(OC(F)F)c(NS(=O)(=O)CCCF)cc3[nH]2)c1N")
"Yes"
>>> classlabel("Cc1cc(Oc2ccccc2F)cc(F)c1-n1ncc(C(=O)c2cc3cc(OC(F)F)c(NC4COC4)cc3[nH]2)c1N")
"Yes"

----------
studyTarget: human Src enzyme (Homo sapiens, UniProt P12931)
Construct: purchased Carna Biosciences, Inc. 08-173
Sequence (P12931 whole entry): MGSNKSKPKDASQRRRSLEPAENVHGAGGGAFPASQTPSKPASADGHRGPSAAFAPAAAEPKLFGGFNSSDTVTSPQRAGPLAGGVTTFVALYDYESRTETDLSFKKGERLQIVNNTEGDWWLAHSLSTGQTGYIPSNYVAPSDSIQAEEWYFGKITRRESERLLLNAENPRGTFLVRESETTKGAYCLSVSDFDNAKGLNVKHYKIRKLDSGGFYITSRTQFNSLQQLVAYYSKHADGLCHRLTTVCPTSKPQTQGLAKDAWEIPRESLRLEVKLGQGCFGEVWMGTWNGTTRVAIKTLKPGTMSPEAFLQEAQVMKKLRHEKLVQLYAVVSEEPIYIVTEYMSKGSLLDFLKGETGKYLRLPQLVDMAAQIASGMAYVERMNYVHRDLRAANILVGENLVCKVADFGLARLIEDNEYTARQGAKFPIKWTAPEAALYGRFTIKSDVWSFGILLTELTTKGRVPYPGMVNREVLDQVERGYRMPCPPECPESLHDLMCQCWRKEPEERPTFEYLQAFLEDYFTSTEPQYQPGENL
experimentalProtocol: Src enzyme inhibitory activity (time-resolved fluorometry, biotinylated peptide phosphorylation)
Assay type: biochemical
particulars: read-out: SRC_IC50
pIC50: −log10 of the molar value.
Where pIC50 equals or exceeds 7, the correct label is Y; where it does not, the label is N.

>>> classlabel("Cc1cc(Oc2c(F)cccc2F)ncc1-n1ncc(C(=O)c2cc3cc(SC(F)F)c(NS(=O)(=O)CCCF)cc3[nH]2)c1N")
"N"
>>> classlabel("Cc1cc2cc(C(=O)c3cnn(-c4cnc(Oc5c(F)cccc5F)cc4C)c3N)[nH]c2cc1N1C(=O)NC2(CCCCC2)C1=O")
"N"
>>> classlabel("Cc1cc(Oc2c(F)cccc2F)ncc1-n1ncc(C(=O)c2cc3cc(OC4CCN(C(C)C)CC4)c(N)cc3[nH]2)c1N")
"Y"
>>> classlabel("Cc1cc2cc(C(=O)c3cnn(-c4cnc(Oc5ccc(F)cc5)cc4C)c3N)[nH]c2cc1NS(=O)(=O)N1CCOCC1")
"N"

----------
studyTarget: human Lck enzyme (Homo sapiens, UniProt P06239)
Construct: purchased Carna Biosciences, Inc. 08-170
Sequence (P06239 whole entry): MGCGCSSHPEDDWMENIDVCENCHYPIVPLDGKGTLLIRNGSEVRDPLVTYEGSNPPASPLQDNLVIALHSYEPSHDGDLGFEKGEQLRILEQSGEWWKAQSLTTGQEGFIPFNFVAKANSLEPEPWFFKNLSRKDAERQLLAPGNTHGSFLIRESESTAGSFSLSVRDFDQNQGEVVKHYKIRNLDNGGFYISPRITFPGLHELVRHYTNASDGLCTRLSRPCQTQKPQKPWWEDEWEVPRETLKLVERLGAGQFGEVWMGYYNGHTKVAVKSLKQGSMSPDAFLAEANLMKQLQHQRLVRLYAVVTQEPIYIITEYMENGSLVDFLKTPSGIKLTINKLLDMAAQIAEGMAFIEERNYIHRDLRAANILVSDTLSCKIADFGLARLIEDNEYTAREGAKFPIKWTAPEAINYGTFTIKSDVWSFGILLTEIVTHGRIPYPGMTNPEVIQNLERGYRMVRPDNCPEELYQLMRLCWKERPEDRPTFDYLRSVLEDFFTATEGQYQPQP
experimentalProtocol: Lck enzyme inhibitory activity (time-resolved fluorometry, biotinylated peptide phosphorylation)
Format: biochemical
particulars: biotinylated peptide phosphorylation, read-out: LCK_IC50
pIC50: −log10 of the molar value.
measuredParameter: pIC50

>>> endpointresult("Cc1cc(Oc2ccccc2F)ccc1-n1ncc(C(=O)c2cc3cc(F)c(NS(=O)(=O)CC4COCCO4)cc3[nH]2)c1N (centres unmarked)")
8.04
>>> endpointresult("Cc1cc(Oc2ccccc2F)ccc1-n1ncc(C(=O)c2cc3cc(OCC(F)F)c(NC4CCN(S(C)(=O)=O)CC4)cc3[nH]2)c1N")
7.89
>>> endpointresult("Cc1cc2cc(C(=O)c3cnn(-c4cnc(Oc5ccccc5F)cc4C)c3N)[nH]c2cc1N1CCOCC1")
8.24
>>> endpointresult("COc1cc2cc(C(=O)c3cnn(-c4cnc(Oc5c(F)cccc5F)cc4C)c3N)[nH]c2cc1N1CCCS1(=O)=O")
8.68
>>> endpointresult("Cc1cc(Oc2ccccc2F)ccc1-n1ncc(C(=O)c2cc3cc(OCC(F)F)c(NS(C)(=O)=O)cc3[nH]2)c1N")
8.01
>>> endpointresult("Cc1cc2cc(C(=O)c3cnn(-c4cnc(Oc5ccccc5F)cc4C)c3N)[nH]c2cc1NS(=O)(=O)c1cc(F)ccn1")
7.17
>>> endpointresult("Cc1cc(Oc2ccccc2F)ncc1-n1ncc(C(=O)c2cc3cc(N4CCOCC4)c(NS(C)(=O)=O)cc3[nH]2)c1N")
7.80
>>> endpointresult("Cc1cc2cc(C(=O)c3cnn(-c4ccc(Oc5ccccc5F)cc4C)c3N)[nH]c2cc1N1C(=O)[C@@H]2C[C@@H](O)CN2C1=O")
8.57
>>> endpointresult("Cc1cc(Oc2c(F)cccc2F)ncc1-n1ncc(C(=O)c2cc3cc(OC(F)F)c(C4CCN(S(C)(=O)=O)CC4)cc3[nH]2)c1N")
7.52
>>> endpointresult("Cc1cc(Oc2c(F)cccc2F)ncc1-n1ncc(C(=O)c2cc3cc(N4CCOCC4)c(NS(=O)(=O)C4CC4)cc3[nH]2)c1N")
7.19
>>> endpointresult("Cc1cc(C)c(S(=O)(=O)Nc2cc3[nH]c(C(=O)c4cnn(-c5cnc(Oc6ccccc6F)cc5C)c4N)cc3cc2C)c(C)c1")
6.23
>>> endpointresult("Cc1cc2cc(C(=O)c3cnn(-c4ccc(Oc5ccccc5F)cc4C)c3N)[nH]c2cc1N1C(=O)NC2(CCOCC2)C1=O")
8.21
>>> endpointresult("Cc1cc2cc(C(=O)c3cnn(-c4ccc(Oc5ccccc5F)cc4C)c3N)[nH]c2cc1NS(=O)(=O)c1cncc(Cl)c1")
7.02
>>> endpointresult("Cc1cc(Oc2ccccc2Cl)ncc1-n1ncc(C(=O)c2cc3cc(Cl)c(NS(C)(=O)=O)cc3[nH]2)c1N")
7.32
>>> endpointresult("Cc1cc(Oc2ccccc2F)ncc1-n1ncc(C(=O)c2cc3cc(N4CCOCC4)c(NS(=O)(=O)N4CCOCC4)cc3[nH]2)c1N")
7.11
>>> endpointresult("Cc1cc2cc(C(=O)c3cnn(-c4c(C)cc(Oc5cccc(F)c5F)cc4F)c3N)[nH]c2cc1NS(=O)(=O)CCCF")
7.11
>>> endpointresult("Cc1cc(Oc2cccc(F)c2F)ccc1-n1ncc(C(=O)c2cc3cc(Cl)c(NS(C)(=O)=O)cc3[nH]2)c1N")
7.30
